target: 5-hydroxytryptamine receptor 4 (Homo sapiens); test: Displacement of [3H]-GR113808 from human 5-HT4 receptor expressed in African green monkey COS7 cell membranes after 30 mins by liquid scintillation counting analysis
Sequence (Q13639 whole entry): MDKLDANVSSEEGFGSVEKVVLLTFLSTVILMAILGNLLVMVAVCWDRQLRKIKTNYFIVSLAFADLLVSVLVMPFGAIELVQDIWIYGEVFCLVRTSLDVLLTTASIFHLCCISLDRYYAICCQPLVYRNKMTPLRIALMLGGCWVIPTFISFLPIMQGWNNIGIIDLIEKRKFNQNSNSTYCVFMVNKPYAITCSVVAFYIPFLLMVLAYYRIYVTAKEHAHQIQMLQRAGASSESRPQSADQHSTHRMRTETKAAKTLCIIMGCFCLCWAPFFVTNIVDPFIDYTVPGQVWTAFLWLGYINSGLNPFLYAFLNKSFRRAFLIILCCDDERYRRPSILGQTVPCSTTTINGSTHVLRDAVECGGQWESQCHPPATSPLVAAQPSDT
Documented IC50 across a set of molecules
The response must be a number in nM with no trailing unit.

The following molecules have reported results that may help.
COc1cc(N)c(Cl)cc1C(=O)N[C@@H]1CCN(CC2CCN(C(=O)C(C)C)CC2)C[C@@H]1OC: 68
COc1cc(N)c(Cl)cc1C(=O)N[C@H]1CCN(CC2CCN(C(=O)C(C)C)CC2)C[C@H]1OC (racemic): 134

Then there is this molecule:
Recorded IC50 for CCOC(=O)N1CCC(CN2CC[C@H](NC(=O)c3cc(Cl)c(N)cc3OC)[C@H](OC)C2)CC1 , please?
377

---

target: UniProt:Q12809; experiment: Inhibition of human ERG channel by fluorescence polarization assay
Sequence (Q12809 whole entry): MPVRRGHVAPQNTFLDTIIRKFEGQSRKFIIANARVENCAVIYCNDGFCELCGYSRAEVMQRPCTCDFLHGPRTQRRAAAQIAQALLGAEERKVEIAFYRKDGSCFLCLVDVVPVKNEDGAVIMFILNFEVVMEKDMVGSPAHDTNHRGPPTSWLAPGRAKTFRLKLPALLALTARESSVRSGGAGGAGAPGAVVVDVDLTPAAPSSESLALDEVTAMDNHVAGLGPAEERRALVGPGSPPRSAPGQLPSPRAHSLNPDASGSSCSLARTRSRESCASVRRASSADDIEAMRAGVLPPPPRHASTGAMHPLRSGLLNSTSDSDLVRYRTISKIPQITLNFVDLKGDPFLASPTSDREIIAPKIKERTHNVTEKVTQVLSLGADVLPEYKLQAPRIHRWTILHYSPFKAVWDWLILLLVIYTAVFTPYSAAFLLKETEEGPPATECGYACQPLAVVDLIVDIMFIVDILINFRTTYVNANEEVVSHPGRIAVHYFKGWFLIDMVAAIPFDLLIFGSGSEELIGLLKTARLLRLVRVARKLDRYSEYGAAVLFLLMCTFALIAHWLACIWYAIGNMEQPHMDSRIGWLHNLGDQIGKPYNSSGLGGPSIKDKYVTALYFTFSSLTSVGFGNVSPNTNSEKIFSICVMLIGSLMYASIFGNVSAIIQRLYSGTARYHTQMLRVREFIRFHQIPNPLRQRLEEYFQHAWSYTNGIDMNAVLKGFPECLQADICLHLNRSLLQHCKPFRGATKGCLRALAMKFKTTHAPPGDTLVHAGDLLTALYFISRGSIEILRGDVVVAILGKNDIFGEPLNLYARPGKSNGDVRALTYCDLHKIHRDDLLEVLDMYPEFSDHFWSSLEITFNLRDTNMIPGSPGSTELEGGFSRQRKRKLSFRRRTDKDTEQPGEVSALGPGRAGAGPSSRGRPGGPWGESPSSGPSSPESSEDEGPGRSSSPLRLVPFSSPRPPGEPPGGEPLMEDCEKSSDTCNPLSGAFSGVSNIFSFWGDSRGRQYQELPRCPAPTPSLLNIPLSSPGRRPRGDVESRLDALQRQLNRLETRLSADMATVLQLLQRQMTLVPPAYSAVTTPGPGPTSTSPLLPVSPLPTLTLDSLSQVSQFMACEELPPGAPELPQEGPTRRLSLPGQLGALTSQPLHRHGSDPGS
REPORTED_METRIC: pIC50
When answering, recall that pIC50 equals minus log10 of the concentration in mol/L, and write that number alone.

Data request, read-out pIC50, for COc1cc(N)c(Cl)cc1C(=O)N[C@H]1CCN(CCCn2cncn2)C[C@H]1OC (relative stereo)
5.11

---

target: 5-hydroxytryptamine receptor 4 (Rattus norvegicus, UniProt Q62758); assay: Agonist activity at 5-HT4 receptor in rat esophageal thoracic muscularis mucosae assessed as carbachol-induced contraction
Sequence (Q62758 whole entry): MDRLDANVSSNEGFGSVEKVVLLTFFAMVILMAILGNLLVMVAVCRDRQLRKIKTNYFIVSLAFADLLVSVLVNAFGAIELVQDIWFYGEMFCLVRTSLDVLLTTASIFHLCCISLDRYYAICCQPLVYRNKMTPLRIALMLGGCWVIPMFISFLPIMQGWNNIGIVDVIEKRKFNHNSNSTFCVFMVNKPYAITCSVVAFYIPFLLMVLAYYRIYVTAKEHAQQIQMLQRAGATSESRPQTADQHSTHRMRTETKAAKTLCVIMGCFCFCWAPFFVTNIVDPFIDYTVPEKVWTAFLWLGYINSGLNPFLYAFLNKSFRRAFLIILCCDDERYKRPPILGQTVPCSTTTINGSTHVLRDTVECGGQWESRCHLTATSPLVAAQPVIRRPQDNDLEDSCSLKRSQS
Measured EC50 values are reported for all entries that follow.
Respond with the bare value in nM.

COc1cc(N)c(Cl)cc1C(=O)N[C@H]1CCN(CCC(=O)N2CCCCC2)C[C@H]1OC (relative stereo): 1050

So what does the record say about EC50 for COc1cc(N)c(Cl)cc1C(=O)N[C@H]1CCN(CCCn2cccc2)C[C@H]1OC (relative stereo) ?
676

# query: EC50 of entry COc1cc(N)c(Cl)cc1C(=O)N[C@H]1CCN(CCCn2cncn2)C[C@H]1OC (relative stereo)
708

Cited source: ChEMBL document CHEMBL3758150
